# Test system: NMRI-Mäusen
# Test: Sedative effect: inhibition of novelty-induced orientation hypermotility (photoelectric measurement)
# Format: in vivo
# Setup Conditions: Mus musculus, 0.5 h; oral, female NMRI mice; measured 30 min after dosing for 30 min; dose giving 50 % decrease of orientation hypermotility; read-out: Sedation ED50
hey, just use criterion met if measured ED50 is less than 5 mg/kg, otherwise criterion not met

1) CN1CCN(C2=Nc3cscc3/C(=C\C#N)c3cscc32)CC1 [1b trans]
criterion not met
2) CN1CCN(C2=Nc3c(csc3Cl)C(=CC#N)c3cscc32)CC1 (mixture of isomers) [Beispiel 2]
criterion not met
3) CN1CCN(C2=Nc3ccccc3Cc3ccccc32)CC1 [Perlapin, reference compound]
criterion met
4) CN1CCN(C2=Nc3cscc3C(=CC#N)c3cscc32)CC1 [Beispiel 1a]
criterion not met
5) CCN1CCN(C2=Nc3cscc3C(=CC#N)c3cscc32)CC1 (mixture of isomers) [Beispiel 6]
criterion not met

// next entry
hey, is ED50 for CN1CCN(C2=Nc3cc(Cl)ccc3Nc3ccccc32)CC1 [Clozapin, reference compound] lower than 5 mg/kg or not?
criterion met
